System: Escherichia coli TOP10
PROTOCOL_DESCRIPTION: shrunken log2 fold change of peptide-encoding DNA abundance (4.5 h post-induction vs induction); higher = less antimicrobial activity (less host growth inhibition)
PARTICULARS: time post-induction: 4.5 h; library: site-saturation at positions 5, 18, 19, 20
Classify as follows. Reported shrunken log2 fold change greater than or equal to -0.06: true. Reported shrunken log2 fold change below: false.

Here's what some known entries look like.
SEQUENCE_TEXT	CLASSIFICATION
RRIRARPPRLPRPRPRPPGEPRP	true
RRIRIRPPRLPRPRPRPCWCPRP	false

Threshold query (shrunken log2 fold change >= -0.06) on "RRIRCRPPRLPRPRPRPPHTPRP"
true

Check this sequence for shrunken log2 fold change at or above -0.06: "RRIRARPPRLPRPRPRPTCCPRP"
true

Could you tell me if the measured shrunken log2 fold change of "RRIRQRPPRLPRPRPRPAIRPRP" reaches -0.06 or more?
true

---

System: Escherichia coli TOP10
PROTOCOL_DESCRIPTION: shrunken log2 fold change of peptide-encoding DNA abundance (4.5 h post-induction vs induction); higher = less antimicrobial activity (less host growth inhibition)
PARTICULARS: time post-induction: 4.5 h; library: site-saturation at positions 5, 18, 19, 20
Quick reference for shrunken log2 fold change among some sequences
Output: the number by itself.

Example results:
SEQUENCE_TEXT	NUMERIC_READOUT
RRIRVRPPRLPRPRPRPASKPRP	-0.0732
RRIRVRPPRLPRPRPRPENQPRP	-0.008
RRIRLRPPRLPRPRPRPLCPPRP	-0.0651
RRIRHRPPRLPRPRPRPKNCPRP	0.00397
RRIRRRPPRLPRPRPRPQIRPRP	0.178
RRIRPRPPRLPRPRPRPGREPRP	2.45
RRIRGRPPRLPRPRPRPGEVPRP	1.2
RRIRKRPPRLPRPRPRPDQSPRP	0.0875

Request the reported shrunken log2 fold change associated with "RRIRYRPPRLPRPRPRPLQLPRP"
-1.13

What does the record list as shrunken log2 fold change for "RRIRLRPPRLPRPRPRPWELPRP" ?
-0.00192

Fill in: shrunken log2 fold change of "RRIRCRPPRLPRPRPRPAADPRP" is ___
0.341

Would you mind telling me what shrunken log2 fold change value was observed for "RRIRTRPPRLPRPRPRPAQLPRP" ?
-0.216

Any idea what shrunken log2 fold change was measured for "RRIRQRPPRLPRPRPRPCGSPRP" ?
-0.000687

Please give the measured shrunken log2 fold change for this sequence: "RRIRNRPPRLPRPRPRPAVVPRP"
0.251

---

System: Escherichia coli TOP10
PROTOCOL_DESCRIPTION: shrunken log2 fold change of peptide-encoding DNA abundance (4.5 h post-induction vs induction); higher = less antimicrobial activity (less host growth inhibition)
PARTICULARS: time post-induction: 4.5 h; library: site-saturation at positions 5, 18, 19, 20
READOUT_KIND: shrunken log2 fold change
Reply: number alone, nothing else.

SEQUENCE_TEXT	shrunken log2 fold change
RRIRCRPPRLPRPRPRPMPRPRP	0.0702
RRIRQRPPRLPRPRPRPRDTPRP	0.0606
RRIRIRPPRLPRPRPRPMGLPRP	-0.0686

Fill blank: measured shrunken log2 fold change of the sequence "RRIRMRPPRLPRPRPRPVFAPRP" is ____.
0.378

---

Test system: Escherichia coli TOP10
PROTOCOL_DESCRIPTION: shrunken log2 fold change of peptide-encoding DNA abundance (4.5 h post-induction vs induction); higher = less antimicrobial activity (less host growth inhibition)
PARTICULARS: time post-induction: 4.5 h; library: site-saturation at positions 5, 18, 19, 20
Property: shrunken log2 fold change; scope: individual sequences
// return just the number, without any unit appended

SEQUENCE_TEXT	NUMERIC_READOUT
RRIRARPPRLPRPRPRPGTCPRP	0.153
RRIRSRPPRLPRPRPRPDSCPRP	-0.0234
RRIRNRPPRLPRPRPRPMDKPRP	0.00658
RRIRWRPPRLPRPRPRPRKVPRP	0.302

# get_value(readout= shrunken log2 fold change, system= Escherichia coli TOP10) for "RRIRKRPPRLPRPRPRPYLFPRP"
-0.0275

Recorded shrunken log2 fold change for "RRIRGRPPRLPRPRPRPKVMPRP" with Escherichia coli TOP10, please?
0.696

# returns recorded shrunken log2 fold change (system: Escherichia coli TOP10) for "RRIRGRPPRLPRPRPRPSPHPRP"
0.435

Missing value: shrunken log2 fold change, Escherichia coli TOP10, entry "RRIRPRPPRLPRPRPRPWFGPRP" . Fill in?
-0.0238

Return shrunken log2 fold change measured with Escherichia coli TOP10 given this sequence: "RRIRARPPRLPRPRPRPFLEPRP"
-0.219

Form field: shrunken log2 fold change recorded for "RRIRCRPPRLPRPRPRPLVGPRP" with Escherichia coli TOP10 (enter value)
3.69

Value wanted: shrunken log2 fold change (Escherichia coli TOP10) of entry "RRIRDRPPRLPRPRPRPAYIPRP"
-0.0656

Tell me reported shrunken log2 fold change for "RRIRERPPRLPRPRPRPAQFPRP" , tested with Escherichia coli TOP10.
0.383

Escherichia coli TOP10 / shrunken log2 fold change / "RRIRHRPPRLPRPRPRPCWAPRP" : value?
0.00936

Query for Escherichia coli TOP10: what shrunken log2 fold change does the record show for "RRIRYRPPRLPRPRPRPFRVPRP" ?
-0.0371

Observed shrunken log2 fold change on Escherichia coli TOP10 for "RRIRARPPRLPRPRPRPRKRPRP" , please.
0.778

---

System: Escherichia coli TOP10
PROTOCOL_DESCRIPTION: shrunken log2 fold change of peptide-encoding DNA abundance (4.5 h post-induction vs induction); higher = less antimicrobial activity (less host growth inhibition)
PARTICULARS: time post-induction: 4.5 h; library: site-saturation at positions 5, 18, 19, 20
// reported shrunken log2 fold change per item

Examples with their reported shrunken log2 fold change follow.
SEQUENCE_TEXT	shrunken log2 fold change
RRIRWRPPRLPRPRPRPQNWPRP	0.215
RRIRTRPPRLPRPRPRPWKGPRP	0.143

Given "RRIRFRPPRLPRPRPRPLSLPRP" , state its recorded shrunken log2 fold change.
-0.0575

# lookup: shrunken log2 fold change of "RRIRGRPPRLPRPRPRPIITPRP"
-0.0865

Give its shrunken log2 fold change value. Item: "RRIRSRPPRLPRPRPRPCEQPRP"
0.000312

Need shrunken log2 fold change, item "RRIRNRPPRLPRPRPRPNQHPRP"
-0.116

Please give the measured shrunken log2 fold change for this sequence: "RRIRERPPRLPRPRPRPNIWPRP"
-0.0737

Suppose we examine the sequence "RRIRIRPPRLPRPRPRPEQCPRP" ; what shrunken log2 fold change value has been reported?
-0.122

Tell me the measured shrunken log2 fold change of "RRIRWRPPRLPRPRPRPEIQPRP" , please.
0.685

I have this sequence here, "RRIRVRPPRLPRPRPRPNQIPRP" , and I need its recorded shrunken log2 fold change.
-0.1

Can you share its shrunken log2 fold change? I mean this sequence: "RRIRQRPPRLPRPRPRPLFHPRP"
-0.733

Data request, read-out shrunken log2 fold change, for "RRIRPRPPRLPRPRPRPPAHPRP"
0.466

Need shrunken log2 fold change, item "RRIRKRPPRLPRPRPRPCFQPRP"
-0.112

If you can, please state the reported shrunken log2 fold change value of "RRIRHRPPRLPRPRPRPWISPRP" .
-0.0102

What does the record list as shrunken log2 fold change for "RRIRVRPPRLPRPRPRPCWRPRP" ?
0.0437

Tell me the measured shrunken log2 fold change of "RRIRWRPPRLPRPRPRPKIMPRP" , please.
-0.198

Endpoint output: shrunken log2 fold change of "RRIRMRPPRLPRPRPRPDRRPRP" . Value?
-0.0127

---

Each entry below lists one item and its recorded shrunken log2 fold change value.
Tested on: Escherichia coli TOP10
PROTOCOL_DESCRIPTION: shrunken log2 fold change of peptide-encoding DNA abundance (4.5 h post-induction vs induction); higher = less antimicrobial activity (less host growth inhibition)
PARTICULARS: time post-induction: 4.5 h; library: site-saturation at positions 5, 18, 19, 20

SEQUENCE_TEXT	shrunken log2 fold change
RRIRNRPPRLPRPRPRPHDPPRP	-0.202
RRIRCRPPRLPRPRPRPLDPPRP	-0.122

Item "RRIRRRPPRLPRPRPRPRGQPRP" has what recorded shrunken log2 fold change?
1.11

Can you share its shrunken log2 fold change? I mean this sequence: "RRIRERPPRLPRPRPRPSTIPRP"
-0.551

---

Quick list: shrunken log2 fold change per entry.
Test system: Escherichia coli TOP10;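 note: peptides expressed intracellularly from a pBAD plasmid library in pooled LB shake-flask culture, induced with 0.3% L-arabinose, DNA abundance read by NGS, three biological replicates, DESeq2 with apeglm shrinkage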
PROTOCOL_DESCRIPTION: shrunken log2 fold change of peptide-encoding DNA abundance (4.5 h post-induction vs induction); higher = less antimicrobial activity (less host growth inhibition)
PARTICULARS: time post-induction: 4.5 h; library: site-saturation at positions 5, 18, 19, 20

SEQUENCE_TEXT	READOUT_KIND	RESULT
RRIRIRPPRLPRPRPRPKDVPRP	shrunken log2 fold change	-0.141

Can you share its shrunken log2 fold change? I mean this sequence: "RRIRRRPPRLPRPRPRPMWLPRP"
0.105

What value of shrunken log2 fold change has been reported for the following sequence? "RRIRKRPPRLPRPRPRPAIMPRP"
0.418

// shrunken log2 fold change lookup, key: "RRIRIRPPRLPRPRPRPMPIPRP"
-0.0218

Please look up its shrunken log2 fold change: "RRIRERPPRLPRPRPRPWGYPRP"
-0.279

Entry "RRIRGRPPRLPRPRPRPGCDPRP" has what shrunken log2 fold change?
1.26

# input sequence: "RRIRSRPPRLPRPRPRPMFHPRP" ; wanted: its shrunken log2 fold change
-0.438

Would you kindly share the measured shrunken log2 fold change for "RRIRLRPPRLPRPRPRPDYTPRP" ?
-0.295

Find the recorded shrunken log2 fold change belonging to "RRIRCRPPRLPRPRPRPLSLPRP" and report it.
-0.305

What shrunken log2 fold change value was documented for this sequence, "RRIRQRPPRLPRPRPRPCIIPRP" ?
-0.0528

Which shrunken log2 fold change is listed for "RRIRIRPPRLPRPRPRPDLSPRP" ?
-0.000521

Need shrunken log2 fold change of "RRIRARPPRLPRPRPRPGWAPRP" , thanks.
0.72

// lookup shrunken log2 fold change for "RRIRNRPPRLPRPRPRPAMHPRP"
-0.273

Reported shrunken log2 fold change, sequence "RRIRDRPPRLPRPRPRPNRLPRP" : ____
0.0873

For "RRIRYRPPRLPRPRPRPGFQPRP" , what is its reported shrunken log2 fold change?
-1.11

Data request, read-out shrunken log2 fold change, for "RRIRVRPPRLPRPRPRPHATPRP"
0.204

Quick check: shrunken log2 fold change of "RRIRARPPRLPRPRPRPGHEPRP" ?
0.054
